Values compiled from paper doi:10.1101/2022.07.22.501140.

Target: XlBicc1 N-term (KH1-KH3) (Xenopus laevis, UniProt A0A1L8FE49 1-506)
Assay: fluorescence polarization
Readout Name: pKd
Note on units: pKd is unitless, being -log10 of a concentration expressed in mol/L.

### Prompt What does the record list as pKd for CUUAUUAGACACGUUGUACAUUAACAGCUCC (structured_RNA) [XlCripto-1 wild-type RNA site] ?
### Response 7.47
